- System: A498 renal
- testProtocol: NCI-60 one-dose screen, 48 h
- experimentalSetup: 10 µM unless noted
Compounds without any hit were thinned out: in the full panel of roughly 83,000, 20% have a hit. Calls of active or inactive are those of the source. Rule for the calls: active = growth percent below 10; inactive = the rest.
Reply using exactly one outcome from True (active), False (inactive)

Task: Hi, sorry to bother you, what did the test record for C[C@]12C[C@H](O)[C@H]3[C@@H](CCC4=CC(=O)CC[C@@]43C)[C@@H]1CC[C@@H]2O ?
Output: False

Task: Assay result, entry CN(Cc1cccnc1)N=O — outcome?
Output: False

Task: In this assay, the call recorded for Nc1c(Br)cc([N+](=O)[O-])cc1[N+](=O)[O-] was what?
Output: False

Task: Please indicate how the test categorized COc1cc2c(cc1OC)CN(C)C(C)C2 (stereo not drawn) .
Output: False

Task: Per the records of this test, what outcome belongs to COc1ccc(C2SCC(=O)Nc3c2c(C)nn3-c2nc3ccc(C)cc3s2)cc1O (stereo not drawn) ?
Output: False

Task: Hi team, can someone confirm the assay call for CCOc1c(Cl)cc(CNC(C)C(O)c2ccccc2)cc1OC (stereo not drawn) ?
Output: False

Task: Called result for Oc1ccc(Br)cc1CN1CCN(Cc2ccc(Cl)cc2)CC1
Output: False

Task: Which outcome was entered for the compound Cc1cc(NC(=O)NCCOc2ccc(N3C(N)=NC(N)=NC3(C)C)cc2Cl)ccc1S(=O)(=O)F in this test?
Output: False

Task: Recorded test outcome, item O=[N+]([O-])c1ccc(/C=C/C=C/c2ccc(S(=O)(=O)F)cc2)c(Cl)c1
Output: False

Task: Assay result, entry CO[C@@H]1[C@H](OC(=O)NC(=O)CCl)CC[C@]2(CO2)[C@H]1[C@@]1(C)O[C@@H]1CC=C(C)C — outcome?
Output: False

Task: What was the test verdict on c1ccc([As]=[As]c2ccccc2)cc1 (stereo not drawn) ?
Output: True

Task: Field: outcome | Entry: Oc1ccc(O)c2c1C1(Cl)C(Cl)=C(Cl)C2(Cl)C1(Cl)Cl
Output: False

Task: Which outcome did this test record for the compound O=C1NC(=O)C(Cc2ccccc2)(Cc2ccccc2)C(=O)N1 ?
Output: False

Task: Name the outcome recorded for COC(=O)C(=[N+]=[N-])C(=O)OC in the assay.
Output: False

Task: Identify the outcome logged in this assay for the compound shown: CCC1CN1P(=O)(OCCOC)N1CC1CC (stereo not drawn)
Output: False

Task: Recorded call for CC(C)(NC(=O)c1nn(CCCCCF)c2ccccc12)c1ccccc1 ?
Output: False

Task: Just curious, what result did O=C(c1cccs1)C1NO[N+]([O-])=C1c1cccs1 (stereo not drawn) get here?
Output: False

Task: Would you mind telling me which call this test gave COc1cc(C2(C#N)CCN(C)CC2)cc(OC)c1OC ?
Output: False

---

- System: HL-60(TB) leukemia
- testProtocol: NCI-60 one-dose screen, 48 h (100 = growth as untreated, 0 = no growth, -100 = all killed)
- experimentalSetup: 10 µM unless noted
The panel holds about 83,000 compounds, 20% with a hit somewhere; the sample as a whole holds those more often. The source made the active and inactive calls. Rule for the calls: active = growth percent below 10; inactive = the rest.
Give growth for every item shown.

Task: What measured growth goes with O=C(/C=C/C=C/c1c(C2CC2)nc2ccccc2c1-c1ccc(F)cc1)c1cccs1 ?
Output: -17.5% (active)

Task: For the compound shown here, CN1C(=O)N(C)C2C1NN=c1s/c(=C\C=C\c3ccccc3)c(=O)n12 (stereo not given) , give the reported growth.
Output: 17.1% (inactive)

Task: Dear colleague, I am looking for the recorded growth of the following compound: CC1(C)C(=O)/C(=C\c2cccnc2)C[C@]2(C)[C@H]3CC=C4[C@@H]5C[C@@](C)(C(=O)O)CC[C@]5(C)CC[C@@]4(C)[C@]3(C)CC[C@@H]12
Output: 104% (inactive)

Task: Reported growth, compound O=CNc1ccc2c(c1)Cc1cc([N+](=O)[O-])ccc1-2 : ____
Output: 17.7% (inactive)

Task: # input compound: COc1ccc(-n2[nH]c3c(cnc4ccccc43)c2=O)cc1 ; wanted: its growth
Output: 97.3% (inactive)

Task: Suppose we examine the compound CC(=O)c1cccs1 ; what growth value has been reported?
Output: 130% (inactive)

Task: Suppose we examine the compound CC(C)(C)CC(C)(C)Nc1c(-c2ccncc2)nc2cnccn12 ; what growth value has been reported?
Output: 102% (inactive)

Task: Which value of growth has been reported for COc1ccc(-n2c(C)cc(-c3ccccc3)c2C)cc1 in the records?
Output: 23.2% (inactive)

Task: Reported growth, compound COc1cc(C2C(C#N)=C(N)Oc3cc4c(cc32)OCO4)cc2c1OCO2 (stereo not given) : ____
Output: -43% (active)

Task: Could you share which growth value was measured for COc1ccc(-c2cc(=O)c3c(OC)c4ccoc4cc3o2)cc1 ?
Output: 117% (inactive)

Task: Quick one: growth of CCCCCCCCCCCC[S+](C)CC(=O)[O-] (stereo not given) ?
Output: 20.3% (inactive)

Task: Please report the recorded growth for COc1ccc(/C(C#N)=C/c2cc(OC)c(OC)c(OC)c2)cc1 .
Output: 14.8% (inactive)

Task: Look up growth for this compound: Cc1csc2ccc(Cl)cc12
Output: 110% (inactive)

Task: Query: growth; subject: Nc1nccc(OCCO)n1
Output: 88.5% (inactive)

Task: What measured growth goes with Cc1ccc(-c2nc3nc(-c4ccc(F)cc4)nc(N4CCCNCC4)c3o2)cc1 ?
Output: -70.3% (active)

Task: Look up growth for this compound: O=C(O)c1ccc(-n2cc(/C=N/Nc3ccccc3)c(-c3ccc(F)cc3F)n2)cc1
Output: 15.1% (inactive)

Task: Bench note: what growth did CCCCCCCCCCCCCOC(=O)c1c(C)[nH]c(/C=C2\N=C(c3ccc[nH]3)C=C2OC)c1C show?
Output: 9.46% (active)

Task: // query growth value for entry CN1CCN(c2nc(NCCCNc3ccnc4cc(Cl)ccc34)c3ccccc3n2)CC1
Output: 15% (inactive)

Task: What growth value was documented for this compound, CC(C)CSc1nc(Nc2ccccc2)c(C#N)c(-c2ccc(F)cc2)n1 ?
Output: 73.4% (inactive)

Task: Item under review: COC(=O)/C(CCC=C(C)C)=C1\[C@@H](OC(C)=O)C[C@@]2(C)[C@H]1C/C(=N/O)[C@H]1[C@@]3(C)CC/C(=N\O)[C@@H](C)[C@@H]3CC[C@@]12C . Reported growth?
Output: 89.3% (inactive)

---

- System: OVCAR-5 ovarian
- testProtocol: NCI-60 one-dose screen, 48 h (100 = growth as untreated, 0 = no growth, -100 = all killed)
- experimentalSetup: 10 µM unless noted
This is part of a sample that, as a whole, favours compounds with a hit. Of some 83,000 tested, about 20% had one in any assay.
Exercise: for every item that follows, state its recorded growth.
Supply the numeric figure in %, leaving out any unit text.

Task: Which growth reading was recorded for the compound Cc1ccc(C(=O)C2CN(C)CCC2(O)c2ccc(C)cc2)cc1 (centres undefined) ?
Output: 122

Task: What growth value was documented for this compound, NC(=O)C(Cl)Cl ?
Output: 101

Task: Which growth reading was recorded for the compound CC(C)CCC1(CCO)C(=O)NC(=S)NC1=O ?
Output: 99.5

Task: Returns the measured growth for the input compound. Input: CC(=O)[O][Hg][c]1nc2c(c(=O)n(C)c(=O)n2C)n1C
Output: 117

Task: Fill in the blank: the reported growth of CCOc1ccc(C(O)CN(C)Cc2ccccc2)cc1Cl (centres undefined) is ____.
Output: 102

Task: Consider the compound Cc1cc(NC(=O)/C=C/c2ccc([N+](=O)[O-])cc2)ccc1S(=O)(=O)F and give its measured growth.
Output: 113

Task: Query (compound): COc1ccc(C2SCC(=O)Nc3c2c(C)nn3-c2nc3ccc(C)cc3s2)cc1O (centres undefined) ; field requested: growth
Output: 67.2

Task: For N#[N+]c1nc2nc(N)[nH]c(=O)c2[nH]1 , what is its reported growth?
Output: 104

Task: GET /values?readout=growth&item= NC(=O)OCC(CO)(c1ccccc1)c1ccccc1
Output: 95.3

Task: Could you share which growth value was measured for C=CCN1C(=O)C(CC)(CCC(C)C)C(=O)NC1=S (centres undefined) ?
Output: 112

Task: Form field: reported growth of Cc1ccc2oc(=O)c3c(c2c1)OC(N)=C(C#N)C3c1ccco1 (centres undefined)
Output: 102

Task: What measured growth goes with COc1ccc(C2=NN(c3ccccc3)C(c3sc(N(CCCl)CCCl)nc3Cl)C2)cc1 (centres undefined) ?
Output: 90.1

Task: Entry under review: Cc1cc(NC(=O)CCc2ccc(N3C(N)=NC(N)=NC3(C)C)cc2)ccc1S(=O)(=O)F . Reported growth?
Output: 17.9

Task: Item under review: C[C@]12CC[C@@H]3C4=C(CC[C@H]3[C@@H]1CC[C@@H]2O)CC(=O)CC4 . Reported growth?
Output: -62.7

Task: Record request: growth value, item CCOC(=O)Nc1cc(Cl)c([N+](=O)[O-])c(NC(=O)OCC)n1
Output: 104

Task: Requested field: growth. Item: CCN(CC)CCOc1c(C(C)C)cccc1C(C)C
Output: 90.6

Task: Which growth value belongs to c1ccc2nc(OCCN3CC3)ccc2c1 ?
Output: 86.2

Task: # lookup: growth of CC1(C)N=C(N)N=C(N)N1c1ccc(CCCCc2ccc(S(=O)(=O)F)cc2)c(Cl)c1
Output: 40.3

Task: Any idea what its growth is? The compound is Fc1ccc(C2=NN(c3ccccc3)C(c3sc(N(CCCl)CCCl)nc3Cl)C2)cc1 (centres undefined)
Output: 91.5

Task: For CCC[CH2][Sn]([CH2]CCC)([CH2]CCC)[O]C(=O)CC , what is its reported growth?
Output: -91.2

Task: Recorded growth for NC(Cc1ccc(O)cc1)C(=O)N/N=C/c1ccc(N(CCCl)CCCl)cc1 (centres undefined) , please?
Output: 115

Task: Quick check: growth of COC[CH2][Hg][C]#[C][Hg][CH2]COC ?
Output: 116

Task: Which measured growth value corresponds to CCOc1cc(C=C(C#N)C#N)cc(Br)c1O ?
Output: 108

Task: // lookup growth for CN1C(=O)NC(=O)C(N=Nc2ccc(Cl)cc2)C1=O (centres undefined)
Output: 98.9

Task: Need growth of COc1ccc2c(c1)NC1=C(C(=O)OC1)C2c1cc(OC)c(OC)c(OC)c1 (centres undefined) , thanks.
Output: 36.1

Task: Requested field: growth. Item: CC(C)C1c2ccc(O)cc2Oc2nc(N)c(C#N)c(N)c21 (centres undefined)
Output: 104

Task: Please report the recorded growth for O=C1NC2(CCNCC2)Nc2ccccc21 .
Output: 115

Task: Suppose we examine the compound O=C(C(=O)N1CCCC1)c1cn(CCCCCn2cc(C(=O)C(=O)N3CCCC3)c3ccccc32)c2ccccc12 ; what growth value has been reported?
Output: 106

Task: growth for CCCCOC(=O)c1ccccc1C(=O)O.CCCCOC(=O)c1ccccc1C(=O)O.[Cu+2] ?
Output: 126
